meta.source: patent US20070293656A1

# TARGET: T1, human collagen type I (acid soluble, extracted from placenta, Sigma C7774) (human, UniProt P02452 162-1218; P08123 80-1119)
# T1 construct: gelled and dried as a fibril film in the assay; also called dried human collagen; h-Collagen
# T1 sequence (P02452 162-1218 limits assumed, chain 1 of 2): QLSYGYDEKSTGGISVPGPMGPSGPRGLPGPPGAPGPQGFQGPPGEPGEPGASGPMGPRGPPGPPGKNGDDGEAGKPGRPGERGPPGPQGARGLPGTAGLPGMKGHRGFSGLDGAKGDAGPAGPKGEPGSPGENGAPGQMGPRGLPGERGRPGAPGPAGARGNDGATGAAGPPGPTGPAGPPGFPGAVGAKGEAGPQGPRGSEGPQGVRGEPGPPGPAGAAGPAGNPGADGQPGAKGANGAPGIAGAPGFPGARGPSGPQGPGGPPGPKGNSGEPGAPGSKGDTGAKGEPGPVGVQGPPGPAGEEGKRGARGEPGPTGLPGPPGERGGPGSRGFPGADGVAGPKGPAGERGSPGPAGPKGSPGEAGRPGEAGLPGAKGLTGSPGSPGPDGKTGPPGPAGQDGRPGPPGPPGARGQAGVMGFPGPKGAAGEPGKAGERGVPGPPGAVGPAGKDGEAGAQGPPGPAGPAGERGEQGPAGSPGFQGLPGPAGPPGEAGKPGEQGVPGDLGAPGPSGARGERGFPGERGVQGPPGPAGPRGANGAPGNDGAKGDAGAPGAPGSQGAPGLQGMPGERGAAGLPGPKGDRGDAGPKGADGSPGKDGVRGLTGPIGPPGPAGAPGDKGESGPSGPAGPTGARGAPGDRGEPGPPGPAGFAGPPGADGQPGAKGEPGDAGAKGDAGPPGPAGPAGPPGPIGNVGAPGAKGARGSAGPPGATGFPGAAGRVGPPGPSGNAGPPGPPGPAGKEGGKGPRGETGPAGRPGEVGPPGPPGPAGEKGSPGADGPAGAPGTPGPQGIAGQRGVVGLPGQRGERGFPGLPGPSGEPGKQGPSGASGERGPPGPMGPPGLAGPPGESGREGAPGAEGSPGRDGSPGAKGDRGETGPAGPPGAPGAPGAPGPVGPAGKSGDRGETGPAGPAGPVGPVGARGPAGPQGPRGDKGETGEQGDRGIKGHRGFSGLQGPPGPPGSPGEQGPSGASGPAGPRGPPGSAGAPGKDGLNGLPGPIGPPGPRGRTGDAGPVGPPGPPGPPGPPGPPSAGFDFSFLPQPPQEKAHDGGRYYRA
# T1 sequence (P08123 80-1119 limits assumed, chain 2 of 2): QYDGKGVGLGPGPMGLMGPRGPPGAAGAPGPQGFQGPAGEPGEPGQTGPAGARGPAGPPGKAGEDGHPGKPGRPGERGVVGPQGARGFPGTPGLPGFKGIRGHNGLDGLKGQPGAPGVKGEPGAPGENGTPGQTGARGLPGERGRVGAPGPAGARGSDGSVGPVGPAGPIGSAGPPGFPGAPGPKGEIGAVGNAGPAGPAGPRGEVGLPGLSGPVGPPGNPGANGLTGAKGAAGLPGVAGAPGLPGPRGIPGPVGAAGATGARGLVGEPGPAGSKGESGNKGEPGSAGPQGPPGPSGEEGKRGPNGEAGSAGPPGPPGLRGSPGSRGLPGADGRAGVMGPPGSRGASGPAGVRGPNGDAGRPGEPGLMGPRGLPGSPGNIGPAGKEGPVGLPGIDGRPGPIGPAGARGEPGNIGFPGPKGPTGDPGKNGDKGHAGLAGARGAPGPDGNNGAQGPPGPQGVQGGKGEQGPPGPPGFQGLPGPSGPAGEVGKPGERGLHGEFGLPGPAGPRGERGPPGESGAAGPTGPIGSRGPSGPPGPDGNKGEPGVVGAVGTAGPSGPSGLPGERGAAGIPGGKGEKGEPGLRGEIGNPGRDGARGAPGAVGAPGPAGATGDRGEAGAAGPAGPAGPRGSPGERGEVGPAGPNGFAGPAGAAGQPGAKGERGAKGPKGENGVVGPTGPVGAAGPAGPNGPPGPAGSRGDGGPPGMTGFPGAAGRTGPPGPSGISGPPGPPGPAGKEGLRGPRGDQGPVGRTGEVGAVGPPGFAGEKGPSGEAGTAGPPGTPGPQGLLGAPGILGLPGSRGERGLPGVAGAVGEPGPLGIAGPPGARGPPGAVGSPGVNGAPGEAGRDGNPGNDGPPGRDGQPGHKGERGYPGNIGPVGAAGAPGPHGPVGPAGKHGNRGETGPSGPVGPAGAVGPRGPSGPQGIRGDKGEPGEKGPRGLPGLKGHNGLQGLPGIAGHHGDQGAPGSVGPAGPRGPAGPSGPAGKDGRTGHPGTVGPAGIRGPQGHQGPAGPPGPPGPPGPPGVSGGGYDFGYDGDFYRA
# MEASUREMENT_PROTOCOL: dried collagen assay
Bridge positions count the residues as written; N and C are the ends. Ends that are not written are not given here.
RESULT_TYPE: % bound (%)

INSERT INTO assay_data (binder, result_type, assay_result) VALUES
  ('EWHCVLNDFRWTCGGD (disulfide 4-13 (inferred)) [SEQ ID NO: 60]', '% bound', 10),
  ('TWRCDQFKGKWVCRGG (disulfide 4-13 (inferred)) [SEQ ID NO: 42]', '% bound', 40),
  ('YSACYQAGCYIY (disulfide 4-9 (inferred)) [SEQ ID NO: 110]', '% bound', 10),
  ('GWACNTTSKGDWECTNL (disulfide 4-14 (inferred)) [SEQ ID NO: 83]', '% bound', 3),
  ('TWACGWTTTGWDNCRWI (disulfide 4-14 (inferred)) [SEQ ID NO: 92]', '% bound', 34),
  ('YPACDDQTHLWNLACWPA (disulfide 4-15 (inferred)) [SEQ ID NO: 103]', '% bound', 2),
  ('DWTCVGDHKTWKCNFH (disulfide 4-13 (inferred)) [SEQ ID NO: 21]', '% bound', 57),
  ('LTVCHPPYYGRCNFV (disulfide 4-12 (inferred)) [SEQ ID NO: 10]', '% bound', 9),
  ('HWQCRLTDYGWNCDER (disulfide 4-13 (inferred)) [SEQ ID NO: 59]', '% bound', 10),
  ('TWICSHNDKGWTCGDQ (disulfide 4-13 (inferred)) [SEQ ID NO: 64]', '% bound', 8),
  ('DWECHGNEFEWNCLMR (disulfide 4-13 (inferred)) [SEQ ID NO: 22]', '% bound', 55),
  ('DWTCRGDEYTWHCNYE (disulfide 4-13 (inferred)) [SEQ ID NO: 14]', '% bound', 83);
